Biological target: BoNT/A1 holotoxin (Hall hyper) (Clostridium botulinum, UniProt P0DPI0 2-1296)
Assay: yeast scFv FACS
OBSERVED PROPERTY: binding result

1H5 scFv (scFv, mouse) scFv: EVQLQQSGAELVRPGTSVKLSCKASDYTFTNYWTHWVKQRPGQGLEWIGVIDPSDSYTNYNQKFKGKATLTVDTSSSTAYMQLSSLTSEDSAVYYCARGYYDTMDYWGQGTTVTVSSVDLKSGGSTSGSGKPGSGEGSSGSARDIVLTQSPASLAVSLGQRATISCRASESVDYDGDSYMNWYQQKPGQPPKLLIYAASNLESGIPARFSGSGSGTDFTLNIHPVEEEDAATYYCLQSNEAPWTFGGGTKLEIK: no binding
10H11 scFv (scFv, mouse) scFv: QIQLLQSGAELVKPGASVKLSCTASGFNIKDYYMHWVKQRPEQGLEWIGRIDPEDGDTEYAPKFQGKATMTADTSSNTAYLQLSSLTSEDSAVYFCARLNYDYPYWYFDVWGTGTTLTVSSVDLKSGGSTSGSGKPGSGEGSSGSARQIVLTQSPAIMSASPGEKVTMTCSASSSVSYMYWYQQKPGSSPRLLIYDTSNLASGVPVRFSGSGSGTSYSLTISRMEAEDAATYYCQQWSSYPLTFGAGTRLELK: no binding
